Tested on: NCI-H23 lung
Test: NCI tumour cell line growth inhibition, 48 h
Item-by-item account of TGI

Worked cases, answers included:
compound	TGI
CN(CCO)CC[C@H](CSc1ccccc1)Nc1ccc(S(=O)(=O)NC(=O)c2ccc(N3CCC([C@@H](O)c4ccccc4-c4ccc(Cl)cc4)CC3)cc2)cc1S(=O)(=O)C(F)(F)F	> 100 µM
Cc1ccc2nc3c(=O)[nH]c(=O)nc-3n(C)c2c1C	> 100 µM
O=C(O)C1=C(O)C(C(=O)O)C23CCCCCCCCCCC12C(C(=O)O)C(O)=C3C(=O)O (stereo not given)	> 100 µM
COC(=O)NC(=O)c1cn(C2OC(CO)C(O)C2O)c(=O)[nH]c1=O (stereo not given)	> 100 µM
O=C1C(N2CCN(c3ccccn3)CC2)=C(Cl)C(=O)c2ncccc21	3.68 µM

Requested field: TGI. Item: O=C(NNC(=S)Nc1ccccc1)c1cc(-c2ccccc2)nc2ccccc12
37.9 µM

Param item: C=C(CN1C(=O)CN(C)C1=O)c1ccc(C(=O)Nc2ccccc2N)cc1
> 100 µM

Now this one: c1cncc(C2(c3cc4ccccc4[nH]3)COCO2)c1 (stereo not given)
> 100 µM

Follow-up item: NCCCOc1ccc([N+](=O)[O-])cc1Cl
> 100 µM

Then this compound: c1coc(CNc2ncnc3[nH]ncc23)c1
> 100 µM
